B1: ATL3 (parent)
chain: HFKKTKKMGGKDFSFRYQQELEEE

# Variants of: B1
# PROTOCOL_DETAILS: protein stability index of a GFP-peptide fusion (GPS, HEK-293T) (PSI 1-6); higher = more stable;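 note: lentivirally expressed fusions sorted by FACS into six bins by GFP to DsRed ratio, PSI derived from sequencing read proportions per bin multiplied by bin number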
# COND: c terminus: a fixed tail appended
Listed below: protein stability index values for each entry.
Returns: the value as a bare number; no unit string appended.

q: I would be grateful if you could share the reported protein stability index for `F15A` .
a: 2.54

q: Record: `K4D`
a: 3.67

q: What do you get for `E22Y` ?
a: 2.15

q: Now the variant `K11Q`
a: 2.24

q: Request: `F15R`
a: 1.83
